# Target under test: T1, human CD324 on cells (MCF7, BR22, NTX tumor cells, 293-hCD324) (human, UniProt P12830 155-882)
# T1 sequence: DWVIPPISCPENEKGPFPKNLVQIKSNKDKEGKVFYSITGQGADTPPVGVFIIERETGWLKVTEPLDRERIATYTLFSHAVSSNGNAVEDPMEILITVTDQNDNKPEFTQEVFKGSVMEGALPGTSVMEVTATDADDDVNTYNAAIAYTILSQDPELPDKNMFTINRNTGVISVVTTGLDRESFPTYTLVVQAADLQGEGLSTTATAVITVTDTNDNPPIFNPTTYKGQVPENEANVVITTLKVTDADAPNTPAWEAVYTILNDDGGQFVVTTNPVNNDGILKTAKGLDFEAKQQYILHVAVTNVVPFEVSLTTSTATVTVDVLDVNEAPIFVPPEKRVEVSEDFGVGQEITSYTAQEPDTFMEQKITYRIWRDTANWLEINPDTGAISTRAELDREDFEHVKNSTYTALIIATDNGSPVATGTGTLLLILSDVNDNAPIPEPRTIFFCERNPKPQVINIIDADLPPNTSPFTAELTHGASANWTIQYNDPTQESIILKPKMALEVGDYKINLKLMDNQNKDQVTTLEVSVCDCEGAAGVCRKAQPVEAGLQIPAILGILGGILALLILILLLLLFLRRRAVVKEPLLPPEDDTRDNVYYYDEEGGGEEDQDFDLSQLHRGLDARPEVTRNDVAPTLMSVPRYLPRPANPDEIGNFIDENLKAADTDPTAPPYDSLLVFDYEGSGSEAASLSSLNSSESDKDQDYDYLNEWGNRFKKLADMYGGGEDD
# Assay summary: cell-based or functional assay
Measured metric: Normalized RLU at 10pM (MCF7, Fab-saporin)
The answer should be written as a number, with no unit following it.

GET /values?readout=Normalized RLU at 10pM (MCF7, Fab-saporin)&item= SC10.163 (antibody, V domains shown) VH: EVQLQQSGPELVKPGDSVKMSCKASGNTVTNYYMDWVKQSHGKSLEWIGYIYANNGGTSYNQKFKGKATLTVDKSSSTAYMEIHSLTSEDSAVYYCAIYYRYEFAYWGQGTLVTVSA VL: DIVMTQAAFSNPVTLGTSASISCRSSKSLLHSNGITYLYWYLQKPGQSPQLLIYQMSNLASGVPDRFSNSGSGTDFTLRISRVEAEDVGVYYCAQNLELPWTFGGGTKLEIK 91.5

GET /values?readout=Normalized RLU at 10pM (MCF7, Fab-saporin)&item= SC10.168 (antibody, V domains shown) VH: SDVQLQESGPGLVKPSQSLSVTCTVTDYSLTSGYYWNWIRQFPGNKLEWMAYIHSSGSTHYNPSLKSRISVTRDTSKNQFFLQLNSVTTEDTATYYCARDGAYYSSWFPYWGQGTLVTVSA VL: DIVMTQSHKLMSASVGDRVSITCKASQDVGTAVAWYQQKPGRSPKLLIYWASNRHTGVPDRFTGSGSGTDFTLTISNVQSEDLADYFCQQFGSYPYTFGGGTKLEIKR 64.8

GET /values?readout=Normalized RLU at 10pM (MCF7, Fab-saporin)&item= SC10.38 (antibody, V domains shown) VH: QVQLQQSGAELMKTGASVKISCKATGYTFSSYWIEWVKQRPGHGLEWIGEILPGSGKTNYNENFKGKATFTADTSSNTAYMQLSSLTSEDSVVYYCARRGAYYGNFDYWGQGTTLTVSS VL: DIQMNQSPSSLSASLGDTITITCHVSQNINVWLTWYQQKPGNIPKLLLYKASNLQTGVPSRFSGSGSGTGFTLTISSLQPEDIATYYCQQGQSYPFTFGSGTK 102
